Measured values drawn from the supplement of paper PMC6609913 for this set.

# System: V-C8 + BRCA2 (BRCA2-proficient hamster cells)
# PROTOCOL_NOTES: normalised cell viability (fraction of plate median); higher = more viable cells (less toxic)
# TEST_PARAMETERS: treatment time: 6 days; 5 µM
Where a name gives a salt, the structure may show the parent alone. Over roughly 1,300 compounds, “normalised cell viability” has its median near 1; the lowest 2% begin near 0.15. This is one part of a sample in which the lowest values are shown more often than they occur.
// normalised cell viability lookup, one value per entry
// keep it numeric: no unit symbol after the value

- COMPOUND: "COc1cc(OC)c(C(=O)CCCN2CCCC2)c(OC)c1 [Buflomedil hydrochloride]"
  normalised cell viability: 1.07
- COMPOUND: "c1ccc(-c2ccc(C(c3ccccc3)n3ccnc3)cc2)cc1 (centres undefined) [Bifonazole]"
  normalised cell viability: 0.914
- COMPOUND: "CC(=O)OCC(=O)[C@@]12OC(C)(C)O[C@@H]1C[C@H]1[C@@H]3C[C@H](F)C4=CC(=O)C=C[C@]4(C)[C@@]3(F)[C@@H](O)C[C@@]12C [Fluocinonide]"
  normalised cell viability: 1.06

Please turn your attention to the following entry.
### Prompt Item CNC[C@H](O)[C@@H](O)[C@H](O)[C@H](O)CO [Meglumine] has what recorded normalised cell viability?
### Response 0.983

* * *

# Tested on: V-C8 + BRCA2 (BRCA2-proficient hamster cells)
# PROTOCOL_NOTES: normalised cell viability (fraction of plate median); higher = more viable cells (less toxic)
# TEST_PARAMETERS: treatment time: 6 days; 5 µM
Where a name gives a salt, the structure may show the parent alone. Over roughly 1,300 compounds, “normalised cell viability” has its median near 1; the lowest 2% begin near 0.15. The sample as a whole holds a higher share of the lowest values than the screen did.
// normalised cell viability lookup, one value per entry
// keep it numeric: no unit symbol after the value

Example compounds with recorded normalised cell viability:
- COMPOUND: "O=C(O)c1ccccc1OP(=O)(O)O"
  READING: 1.06
- COMPOUND: "NC(=O)c1cc[n+](CC2=C(C(=O)[O-])N3C(=O)[C@@H](NC(=O)[C@@H](c4ccccc4)S(=O)(=O)O)[C@H]3SC2)cc1 [Cefsulodin sodium salt]"
  READING: 1.06
- COMPOUND: "COC(=O)C1=C(C)NC(C)=C(C(=O)OC2CCCN(Cc3ccccc3)C2)C1c1cccc([N+](=O)[O-])c1 (configuration not stated) [Benidipine hydrochloride]"
  READING: 0.97
- COMPOUND: "CCCN(CCC)C(=O)C(CCC(=O)O)NC(=O)c1ccccc1 (configuration not stated) [Proglumide]"
  READING: 0.986
- COMPOUND: "CC[C@H](C)C(=O)O[C@H]1C[C@H](O)C=C2C=C[C@H](C)[C@H](CC[C@@H](O)C[C@@H](O)CC(=O)O)[C@H]21"
  READING: 1.02

### Prompt Item `CC[C@H](C)C(=O)O[C@H]1C[C@@H](C)C=C2C=C[C@H](C)[C@H](CC[C@@H]3C[C@@H](O)CC(=O)O3)[C@H]21` has what recorded normalised cell viability?
### Response 0.153

### Prompt Item `O=C(CCCCCCC(=O)Nc1ccccc1)NO` has what recorded normalised cell viability?
### Response 0.17

* * *

# System: V-C8 + BRCA2 (BRCA2-proficient hamster cells)
# PROTOCOL_NOTES: normalised cell viability (fraction of plate median); higher = more viable cells (less toxic)
# TEST_PARAMETERS: treatment time: 6 days; 5 µM
Counter-ions that a name gives are not always drawn. The full ranking holds about 1,300 compounds; the median of “normalised cell viability” is about 1, and the lowest 2% start at about 0.15. Many of the other results were omitted from the sample, so the lowest values are more common in it than they were.
MEASUREMENT_TYPE: normalised cell viability
// keep it numeric: no unit symbol after the value

Example compounds with recorded normalised cell viability:
- COMPOUND: "C[C@@H](O)[C@H]1C(=O)N2C(C(=O)O)=C(S[C@@H]3CN[C@H](C(=O)N(C)C)C3)[C@H](C)[C@H]12"
  normalised cell viability: 1.04
- COMPOUND: "NC(N)=Nc1nc(CSCC/C(N)=N/S(N)(=O)=O)cs1"
  normalised cell viability: 1.1
- COMPOUND: "CCCN[C@H]1CCc2nc(N)sc2C1 [Pramipexole]"
  normalised cell viability: 0.987
- COMPOUND: "C[C@@]1(O)CCOC(=O)C1"
  normalised cell viability: 1.06
- COMPOUND: "CCN(CC)CCN[C@@H](C(=O)OCCC(C)C)c1ccccc1 [Camylofine chlorhydrate]"
  normalised cell viability: 0.998
- COMPOUND: "CN(C)C(=O)C(CCN1CCC(O)(c2ccc(Cl)cc2)CC1)(c1ccccc1)c1ccccc1 [Loperamide hydrochloride]"
  normalised cell viability: 0.67
- COMPOUND: "CCN(CC)CCc1nc(-c2ccccc2)no1 [Oxalamine citrate salt]"
  normalised cell viability: 1.01
- COMPOUND: "CCCC(=O)Nc1ccc(OCC(O)CNC(C)C)c(C(C)=O)c1 (centres undefined) [Acebutolol hydrochloride]"
  normalised cell viability: 1.04

### Prompt Item `CN(C/C=C/C#CC(C)(C)C)Cc1cccc2ccccc12` has what recorded normalised cell viability?
### Response 0.339

### Prompt Item `Clc1cnccn1` has what recorded normalised cell viability?
### Response 1.02

### Prompt Item CCCCCCCCCCCCCCCC[N+](C)(C)CCN(Cc1ccc(OC)cc1)c1ncccn1 [Thonzonium bromide] has what recorded normalised cell viability?
### Response 0.74

### Prompt Item CCOC(=O)OC(C)OC1=C(C(=O)Nc2ccccn2)N(C)S(=O)(=O)c2ccccc21 (centres undefined) has what recorded normalised cell viability?
### Response 0.994

### Prompt Item `CC1(C)OC(=O)NC1=O` has what recorded normalised cell viability?
### Response 0.964

### Prompt Item CCCCCNC(=N)N/N=C/c1c[nH]c2ccc(OC)cc12 [Tegaserod maleate] has what recorded normalised cell viability?
### Response 0.155

### Prompt Item CC[N+](C)(C)Cc1ccccc1Br [Bretylium tosylate] has what recorded normalised cell viability?
### Response 0.977

### Prompt Item O=C(OCCOCCO)c1ccccc1Nc1cccc(C(F)(F)F)c1 [Etofenamate] has what recorded normalised cell viability?
### Response 0.987

### Prompt Item Cc1cc(=O)n(-c2ccccc2)n1C [Antipyrine] has what recorded normalised cell viability?
### Response 1.02

### Prompt Item NCCNCCNCCNCCN [Tetraethylenepentamine pentahydrochloride] has what recorded normalised cell viability?
### Response 1.01

### Prompt Item O=C(Nc1ccc([N+](=O)[O-])cc1Cl)c1cc(Cl)ccc1O [Niclosamide] has what recorded normalised cell viability?
### Response 0.127

* * *

# System: V-C8 + BRCA2 (BRCA2-proficient hamster cells)
# PROTOCOL_NOTES: normalised cell viability (fraction of plate median); higher = more viable cells (less toxic)
# TEST_PARAMETERS: treatment time: 6 days; 5 µM
Where a name gives a salt, the structure may show the parent alone. Over roughly 1,300 compounds, “normalised cell viability” has its median near 1; the lowest 2% begin near 0.15. The list comes from a sample in which the lowest values are over-represented; it also holds close analogues and randomly drawn compounds.
// normalised cell viability lookup, one value per entry
// keep it numeric: no unit symbol after the value

- COMPOUND: "COC(=O)Nc1nc2ccc(SC(C)C)cc2[nH]1"
  STUDY_SYSTEM: "V-C8 + BRCA2 (BRCA2-proficient hamster cells)"
  normalised cell viability: 0.245

### Prompt Item CNNCc1ccc(C(=O)NC(C)C)cc1 [Procarbazine hydrochloride] has what recorded normalised cell viability?
### Response 0.956

### Prompt Item `CN1C(C(=O)Nc2ccccn2)=C(O)c2ccccc2S1(=O)=O` has what recorded normalised cell viability?
### Response 1.05

### Prompt Item Cc1cccc(N(C)C(=S)Oc2ccc3ccccc3c2)c1 [Tolnaftate] has what recorded normalised cell viability?
### Response 1.04

### Prompt Item `O=C(CCCN1CCC(O)(c2ccc(Br)cc2)CC1)c1ccc(F)cc1` has what recorded normalised cell viability?
### Response 0.979

### Prompt Item NC12CC3CC(CC(C3)C1)C2 [Adamantamine fumarate] has what recorded normalised cell viability?
### Response 0.95

### Prompt Item CC(C)(C(=O)O)c1ccc(C(O)CCCN2CCC(C(O)(c3ccccc3)c3ccccc3)CC2)cc1 (centres undefined) [Fexofenadine HCl] has what recorded normalised cell viability?
### Response 1.04

### Prompt Item `O=C(CCCN1CCN(c2ccccn2)CC1)c1ccc(F)cc1` has what recorded normalised cell viability?
### Response 0.902

### Prompt Item CC(C)(C)c1ccc(C(O)CCCN2CCC(C(O)(c3ccccc3)c3ccccc3)CC2)cc1 (centres undefined) has what recorded normalised cell viability?
### Response 0.103

* * *

# Test system: V-C8 + BRCA2 (BRCA2-proficient hamster cells)
# PROTOCOL_NOTES: normalised cell viability (fraction of plate median); higher = more viable cells (less toxic)
# TEST_PARAMETERS: treatment time: 6 days; 5 µM
Where a name gives a salt, the structure may show the parent alone. In all, about 1,300 compounds were measured (“normalised cell viability”: median about 1, lowest 2% from about 0.15 on). Shown is part of a subset that was picked to be rich in the lowest values.
MEASUREMENT_TYPE: normalised cell viability

Example compounds with recorded normalised cell viability:
- COMPOUND: "CN1CCCN=C1/C=C/c1cccs1 [Pyrantel tartrate]"
  normalised cell viability: 1.03
- COMPOUND: "Nc1ccc(C(=O)O)c(O)c1"
  normalised cell viability: 1.03
- COMPOUND: "N=C(N)NCC1COC2(CCCCC2)O1 (stereo not drawn) [Guanadrel sulfate]"
  normalised cell viability: 1.03
- COMPOUND: "Cn1cnc([N+](=O)[O-])c1Sc1ncnc2[nH]cnc12"
  normalised cell viability: 0.93
- COMPOUND: "C[C@@H]1C[C@H]2[C@@H]3C[C@H](F)C4=CC(=O)C=C[C@]4(C)[C@@]3(Cl)[C@@H](O)C[C@]2(C)[C@H]1C(=O)COC(=O)C(C)(C)C [Clocortolone pivalate]"
  normalised cell viability: 0.899
- COMPOUND: "CC(=O)[C@H]1CC[C@H]2[C@@H]3CC=C4C[C@@H](O)CC[C@]4(C)[C@H]3CC[C@]12C"
  normalised cell viability: 1.07
- COMPOUND: "Cc1ccnc2c1NC(=O)c1cccnc1N2C1CC1"
  normalised cell viability: 1.05

### Prompt Item `CN(N=O)C(=O)N[C@@H](C=O)[C@@H](O)[C@H](O)[C@H](O)CO` has what recorded normalised cell viability?
### Response 1.06
